Values from patent US11517568B2

Tested on: L3 animals
Assay: Abnormal locomotory behaviour of L3 animals on solid agar (extended SAR)
Type: in vivo, Caenorhabditis elegans
Details: Caenorhabditis elegans; 15 uM, 1 h exposure, L3, mean of 4 replicates; read-out: % any phene 1 h (conc.) 15
Quantity Measured: pest or weed control at 15 µM (%)
The reply should contain only the number, in %.

[Q] Query the reported pest or weed control at 15 µM for L3 animals; item: CCC1CCC(N2CCN(c3ccc([N+](=O)[O-])cc3)CC2)CC1 (stereo not drawn)
[A] 95.9

[Q] Consider next the compound Fc1ccc(N2CCN(CC3CC=CCC3)CC2)cc1 (stereo not drawn) in the same way.
[A] 77.5

[Q] Consider next the compound c1ccc(N2CCN(C3CCCCCC3)CC2)cc1 in the same way.
[A] 98.3

[Q] Consider next the compound Clc1ccc(N2CCN(CC3CC4C=CC3C4)CC2)cc1 (stereo not drawn) in the same way.
[A] 100

[Q] Consider next the compound c1ccc(N2CCN(C3CCCCCCC3)CC2)cc1 in the same way.
[A] 93.3

[Q] Consider next the compound Clc1ccc(N2CCN(C3CCCCCC3)CC2)cc1 in the same way.
[A] 100

====

System: L3 animals
Assay: Abnormal locomotory behaviour of L3 animals on solid agar (extended SAR)
Format: in vivo, Caenorhabditis elegans
Conditions: Caenorhabditis elegans, 6 h, read-out: % any phene 6 h (conc.) 3.75
Quantity Measured: pest or weed control at 3.75 µM

- Compound: "O=[N+]([O-])c1ccc(N2CCN(CC3CCCCC3)CC2)cc1 [Compound Ia]"
  pest or weed control at 3.75 µM: "22.5%"
- Compound: "CC1CCC(N2CCN(c3ccc([N+](=O)[O-])cc3)CC2)CC1 (centres unmarked) [Ib]"
  pest or weed control at 3.75 µM: "0%"
- Compound: "Fc1ccc(N2CCN(CC3CCCCC3)CC2)cc1 [Ig]"
  pest or weed control at 3.75 µM: "0.8%"

[Q] Query the reported pest or weed control at 3.75 µM for L3 animals; item: O[C@@H]1CCCC[C@H]1N1CCC(c2ccccc2)CC1 (racemic) [Vesamicol, reference compound]
[A] 0%

[Q] Consider next the compound Clc1ccc(N2CCN(CC3CCCCC3)CC2)cc1 [Ih] in the same way.
[A] 0%

====

Test system: L3 animals
Assay: Abnormal locomotory behaviour of L3 animals on solid agar (extended SAR)
Assay type: in vivo, Caenorhabditis elegans
Conditions: Caenorhabditis elegans; 3.75 uM, 24 h exposure, L3, mean of 4 replicates; read-out: % any phene 24 h (conc.) 3.75
Measured pest or weed control at 3.75 µM, listed per entry.
The reply should contain only the number, in %.

- Molecule: "c1ccc(N2CCN(C3CCCCCC3)CC2)cc1 [Iff]"
  Unit String: "%"
  Recorded Value: 0
- Molecule: "CC1CCC(N2CCN(c3ccccc3)CC2)CC1 (stereo not drawn) [Iz]"
  Unit String: "%"
  Recorded Value: 0
- Molecule: "c1ccc(N2CCN(CC3CCCC3)CC2)cc1 [Ihh]"
  Unit String: "%"
  Recorded Value: 0
- Molecule: "Clc1ccc(N2CCN(CC3CC4C=CC3C4)CC2)cc1 (stereo not drawn) [Ix]"
  Unit String: "%"
  Recorded Value: 66.7
- Molecule: "O=[N+]([O-])c1ccc(N2CCN(C3CCCCCC3)CC2)cc1 [Ir]"
  Unit String: "%"
  Recorded Value: 0

// below: pest or weed control at 3.75 µM requested for another molecule
[Q] Return reported pest or weed control at 3.75 µM; argument: Fc1ccc(N2CCN(CC3CC=CCC3)CC2)cc1 (stereo not drawn) [Iy]
[A] 0

====

Test system: wild type fourth-stage C. elegans larvae (L4s)
Experiment: Locomotory defects (coiled and/or paralysis) in wild type fourth-stage C. elegans larvae on solid substrate
Assay type: in vivo, Caenorhabditis elegans
Details: Caenorhabditis elegans, read-out: EC50 (coiled and/or paralysis, dose-response)
Quantity Measured: pEC50
Note: pEC50 values are expressed as the negative base-10 logarithm of concentration in M.

[Q] Return reported pEC50; argument: O=[N+]([O-])c1ccc(N2CCN(CC3CCCCC3)CC2)cc1
[A] 4.89

====

Tested on: L3 animals
Assay: Abnormal locomotory behaviour of L3 animals on solid agar (extended SAR)
Assay type: in vivo, Caenorhabditis elegans
Conditions: Caenorhabditis elegans; 3.75 uM, 24 h exposure, L3, mean of 4 replicates; read-out: % any phene 24 h (conc.) 3.75
Quantity Measured: pest or weed control at 3.75 µM

Record excerpt, results attached:
- Compound: "CCC1CCC(N2CCN(c3ccc([N+](=O)[O-])cc3)CC2)CC1 (stereo not drawn)"
  pest or weed control at 3.75 µM: "0%"
- Compound: "CC1CCC(N2CCN(c3ccc(F)cc3)CC2)CC1 (stereo not drawn)"
  pest or weed control at 3.75 µM: "0%"
- Compound: "c1ccc(N2CCN(C3CCCCCCC3)CC2)cc1"
  pest or weed control at 3.75 µM: "0%"
- Compound: "O=[N+]([O-])c1ccc(N2CCN(C3CCCCCCC3)CC2)cc1"
  pest or weed control at 3.75 µM: "0%"
- Compound: "Clc1ccc(N2CCN(C3CCCCCC3)CC2)cc1"
  pest or weed control at 3.75 µM: "34.2%"

[Q] Query the reported pest or weed control at 3.75 µM for L3 animals; item: Fc1ccc(N2CCN(C3CCCCCC3)CC2)cc1
[A] 0%
